src = the supplement of paper PMC8612539

Below, each entry is listed with its recorded minimum inhibitory concentration.
System: Histophilus somni
ASSAY PROCEDURE: minimum inhibitory concentration (MIC)
CONDITIONS USED: isolate (source animal id): 92

# CHEMICAL SMILES, minimum inhibitory concentration
records = [
    ("CN(C)[C@@H]1C(O)=C(C(N)=O)C(=O)[C@@]2(O)C(O)=C3C(=O)c4c(O)cccc4[C@@](C)(O)[C@H]3C[C@@H]12", "8 mg/L"),
    ("CO/N=C(\\C(=O)N[C@@H]1C(=O)N2C(C(=O)O)=C(CSC(=O)c3ccco3)CS[C@H]12)c1csc(N)n1", "≤ 0.25 mg/L"),
    ("COc1cc(Cc2cnc(N)nc2N)cc(OC)c1OC.Cc1cc(NS(=O)(=O)c2ccc(N)cc2)no1", "≤ 2 mg/L"),
    ("COc1cc(NS(=O)(=O)c2ccc(N)cc2)nc(OC)n1", "≤ 256 mg/L"),
]
